RECORDED METRIC: melting point

{"COMPOUND": "CCCCc1nc(SC)c(C(=O)OCC)n1Cc1ccccc1-c1cccc(S(=O)(=O)NC#N)c1", "RECORDED METRIC": "melting point", "RECORDED MEASUREMENT": "108 °C"}
{"COMPOUND": "Cc1ncc(C(=O)Nc2ccc(-n3nc(C(F)(F)F)cc3C3CC3)cc2)c(C)n1", "RECORDED METRIC": "melting point", "RECORDED MEASUREMENT": "145 to 147 °C"}
{"COMPOUND": "C[C@H](CN(C(=O)C1C2CCC1CC2)c1ccccn1)N1CCN(c2cccc3[nH]ccc23)CC1 (some centres undefined)", "RECORDED METRIC": "melting point", "RECORDED MEASUREMENT": "176 to 179 °C"}
{"COMPOUND": "CCOC(=O)NC(=O)C(C#N)=CNc1c(C)cccc1C", "RECORDED METRIC": "melting point", "RECORDED MEASUREMENT": "138 to 140 °C"}
{"COMPOUND": "CC(C)(C)OC(=O)Nc1ccccc1NC(=O)c1ccc(C(=O)O)cc1", "RECORDED METRIC": "melting point", "RECORDED MEASUREMENT": "190 to 192 °C"}

Turning now to a further compound:
Ask | What measured melting point goes with Cc1cccc(C2(C)OC(C)C(C)O2)c1NC(=O)CCl (centres undefined) ?
Reply | 55 to 57 °C

---

RECORDED METRIC: melting point

// solved cases for melting point follow
{"COMPOUND": "C=CCOC(=O)c1ncn2c1[C@@H]1CCCN1C(=O)c1c(Cl)cccc1-2", "melting point": "122 to 123 °C"}
{"COMPOUND": "CC(=O)OC1CCC2(C)C(CCC3C4CCC(C(C)=O)C4(C)CC(O)C32Cl)C1 (stereo not given)", "melting point": "175 to 179 °C"}
{"COMPOUND": "CCn1c(CO)nc(C(C)C)c1Sc1cccc(Cl)c1", "melting point": "99 to 100 °C"}
{"COMPOUND": "Cc1ccc(-c2nc(N3CCOCC3)c3c(C)c(C#N)sc3n2)cc1", "melting point": "206 to 207 °C"}

Turning now to a further compound:
Ask | What measured melting point goes with CO[C@@H]1CN(CCC#N)CC[C@@H]1NC(=O)c1cc(Cl)c(N)c2c1OCC2 (relative stereo) ?
Reply | 191 °C

---

Quick reference for melting point among some molecules

Ask | What measured melting point goes with COC(=O)CCn1c(C(=O)O)cc2ccccc21 ?
Reply | 118 to 120 °C

Ask | What measured melting point goes with COC(=O)C(=O)Nc1cccc(C(=O)Nc2nnn[nH]2)c1 ?
Reply | 253 to 254 °C

---

RECORDED METRIC: melting point

Ask | What measured melting point goes with CC(=O)N1CCC(c2nn(-c3ccccc3)c3cc(Br)ccc23)CC1 ?
Reply | 136 to 138 °C

Ask | What measured melting point goes with COc1ccc(-c2ccc(C)c(OCC(OC)OC)c2)cc1 ?
Reply | 39 to 40 °C

Ask | What measured melting point goes with CC(=O)N(CCC(CCN1CCCCC1)(C(N)=O)c1ccccc1Cl)C(C)C (stereo not given) ?
Reply | 141 to 147 °C

Ask | What measured melting point goes with O=C(O)CC[C@H]1CC[C@H]2CN[C@H](C(=O)O)C[C@H]2C1 (racemic) ?
Reply | 190 to 191 °C

Ask | What measured melting point goes with COc1cc2c(cn1)OCC21C(=O)Nc2ccccc21 (stereo not given) ?
Reply | 231 to 232 °C

Ask | What measured melting point goes with O=C(c1ccccc1)c1cccnc1-c1nc(NC2CCCCC2)c2ccccc2n1 ?
Reply | 204 to 208 °C

Every entry's value here was drawn from a melting point compilation (Tetko et al.; mined from patent text by program, amines drawn as free bases though some values may be those of a salt).
